Catalogue of molecules with associated double positive cells
- test: differentiation of ER-HoxA9 arrested myeloid cells – cell-based, GFP/Mac1 flow cytometry, cherry pick 01, confirmation (AID 651706);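 as to double positive cells: share of live cells carrying both lysozyme GFP and MAC1 staining after four days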
- condition_notes: ER-HoxA9 myeloid progenitors, stronger effect = higher value; measured here: percent double positive cells
Among all 2,300 compounds or so, about 55 (2%) were called active. The list is a sample of the results.

molecule | unit_of_measurement | double positive cells
Cc1ccc2c(c1)C1C[N+](C)(CC(=O)c3ccccc3)CCC1N2C(=O)c1ccccc1Cl (centres undefined) | % | 2.05
O=S(=O)(c1ccc(Br)cc1)c1nc(-c2ccccc2)oc1NCc1cccnc1 | % | 50.2
Cc1cccc(OCC(O)CN2CCN(CCN3C(=O)c4cccc5cccc(c45)C3=O)CC2)c1C (centres undefined) | % | 0
CCCCSc1nc2c(c(=O)n1CC)SC(C)C2 (centres undefined) | % | 0.9
CCN(CC)c1ccc(/C=N/NC(=O)CNC(=O)c2cccs2)cc1 | % | 1.15
O=C(NC(=O)c1ccccc1)Nc1ccccc1O | % | 0.95
Clc1ccc(-c2nnc(SCc3nc4ccccc4s3)o2)cc1 | % | 1
COCCCn1c(=O)/c(=C/c2ccccc2OC(C)C)s/c1=C(\C#N)C(=O)Nc1ccc(C(=O)O)cc1 | % | 1.7
O=C(CN(c1ccccc1)S(=O)(=O)c1ccc(Cl)cc1)Nc1ccccc1C(=O)N1CCCC1 | % | 1.4
Cc1cc(C)c(S(=O)(=O)NCC2CCC(C(=O)NCc3ccc4c(c3)OCO4)CC2)c(C)c1 (centres undefined) | % | 1.35
COc1cc(N=Cc2c(O)[nH]c3ccccc23)cc(OC)c1OC | % | 0
O=C(Cn1cc(-c2nnnn2-c2ccc(Cl)cc2)c(=O)c2ccccc21)c1ccccc1 | % | 2.6
C/C(=C\c1ccccc1)C1NC(=O)c2c(sc3c2CCCC3)N1 (centres undefined) | % | 0.75
O=C(NCCN=C1NS(=O)(=O)c2ccccc21)c1ccc(S(=O)(=O)N2CCOCC2)cc1 | % | 1.3
CCc1c(C)sc(NC(=O)c2cccs2)c1C(N)=O | % | 5.9
CCOc1ccc(NC(=O)CSc2nc3c(c(=O)n2-c2ccccc2OC)SCC3)cc1 | % | 1.4
Cc1nc(C)c(-c2nnc(-c3cccc(S(=O)(=O)N(C)C)c3)o2)cc1C(=O)NN | % | 1.3
Nc1nc(Nc2ccccc2F)nc(NC2CCCCC2)c1[N+](=O)[O-] | % | 25
Cc1cccc(-n2c(SCC(=O)Nc3cccc(S(=O)(=O)NC4=NCCCCC4)c3)nc3ccccc3c2=O)c1C | % | 0.7

---

Property: differentiation response; scope: individual compounds
- test: differentiation of ER-HoxA9 arrested myeloid cells – cell-based, GFP/Mac1 flow cytometry, cherry pick 01, confirmation (AID 651706);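 as to differentiation response: plate controls were double positive share in DMSO wells for no effect and share in positive control wells for full effect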
- condition_notes: ER-HoxA9 myeloid progenitors, stronger effect = higher value; GFP/Mac1 double-positive flow
The campaign covered roughly 2,300 compounds. About 55 (2%) were called active. Not all results are given here.
measured_quantity: differentiation response (%)

compound | measured_quantity | measured
O=C(CCCN1C(=O)CCC1=O)Nc1ccc(Cl)c(C(F)(F)F)c1 | differentiation response | 1.55
O=C(NC(=O)c1ccccc1)Nc1ccccc1O | differentiation response | 5.8
Cc1nn(-c2cc(Cl)ccc2N)c(=O)c2ccccc12 | differentiation response | 1.3
Cc1nn(-c2ncccn2)c2c1C(=O)CC(C)(C)C2Br (stereo unspecified) | differentiation response | 1
CCOc1ccc(C(=O)Nc2ccc(S(=O)(=O)NCC3CCCO3)cc2)cc1OCC (stereo unspecified) | differentiation response | 1.5
Cn1c(CNC(=O)c2ccccc2F)nnc1SCc1ccc(F)cc1 | differentiation response | 2.7
CCOC(=O)c1c(-c2ccccc2)oc2ccc(OCC(=O)NN)cc12 | differentiation response | 2.65
CCN(CC)C(=O)CSC(Nc1cccc(F)c1)=C(C#N)C#N | differentiation response | 13.7
CCCCSc1nc2c(c(=O)n1CC)SC(C)C2 (stereo unspecified) | differentiation response | 1.7
CC(C)(C)OC(=O)CNC(=O)c1[nH]cnc1C(=O)N[C@@H](Cc1ccccc1)C(=O)OCc1ccccc1 | differentiation response | 1.85
Cc1ccc2nc(-c3ccccn3)cc(C(=O)Nc3ccc4c(c3)OCO4)c2c1 | differentiation response | 1.4
CC1(C)CC(=O)C2=C(C1)Nc1cc(C(=O)c3ccccc3)ccc1NC2c1ccccn1 (stereo unspecified) | differentiation response | 1.95
CC(=O)Nc1ccc(S(=O)(=O)Nc2ccc(N3CCCCC3)cc2)cc1 | differentiation response | 0
C/C(=C\c1ccccc1)C1NC(=O)c2c(sc3c2CCCC3)N1 (stereo unspecified) | differentiation response | 1.1
CCC1CCCCN1CCCNC(=O)Cn1nc(-c2ccccc2)ccc1=O (stereo unspecified) | differentiation response | 3.1
Nc1ccc2nc3c(=O)[nH]c(=S)[nH]c3nc2c1 | differentiation response | 11.7
